Overview of recorded cell viability for various compounds
- Tested on: UCD52 (cells of a triple-negative basal-like breast cancer xenograft)
- experimental details: cell viability (% of vehicle); higher = less cytotoxic
- condition label: 1 µM; 72 h

# compound, cell viability
measured = [
    ("COc1ccc2c(O[C@H]3CC4C(=O)N(C)CCCC/C=C\\[C@H]5C[C@@]5(C(=O)NS(=O)(=O)C5CC5)NC(=O)[C@@H]4C3)cc(-c3nc(C(C)C)cs3)nc2c1C (stereo partly drawn)", 90.4),
    ("Clc1ccc(C(Cn2ccnc2)OCc2ccc(Sc3ccccc3)cc2)c(Cl)c1.O=[N+]([O-])O (stereo not drawn) [Fenticonazole Nitrate]", 92.5),
    ("CC(C)(C)NC(=O)C1CC2CCCCC2CN1CC(O)C(Cc1ccccc1)NC(=O)C(CC(N)=O)NC(=O)c1ccc2ccccc2n1.CS(=O)(=O)O (stereo not drawn) [Saquinavir mesylate]", 89.5),
]

###

- Tested on: HCI01 (cells of a triple-negative basal-like breast cancer xenograft)
- experimental details: cell viability (% of vehicle); higher = less cytotoxic
- condition label: 10 µM; 72 h
Threshold 100. cell viability below it: criterion met. cell viability at it or above: criterion not met.

# compound, assigned class
records = [
    ("OCC(CO)NC1CC(O)(CO)C(O)C(O)C1O (stereo not drawn)", "criterion not met"),
    ("Cc1ccc(F)c(NC(=O)Nc2ccc(-c3cccc4[nH]nc(N)c34)cc2)c1", "criterion not met"),
    ("Cl.N#Cc1ccc2[nH]cc(CCCCN3CCN(c4ccc5oc(C(N)=O)cc5c4)CC3)c2c1 [Vilazodone Hydrochloride]", "criterion not met"),
    ("COc1ccc(CN2CCN(C(c3ccc(F)cc3)c3ccc(F)cc3)CC2)c(OC)c1OC.Cl.Cl [Lomerizine HCl]", "criterion met"),
    ("Br.Br.Br.Br.Br.Cc1cc(N2CCN(C3CNC(C(=O)N4CCSC4)C3)CC2)n(-c2ccccc2)n1.Cc1cc(N2CCN(C3CNC(C(=O)N4CCSC4)C3)CC2)n(-c2ccccc2)n1 (stereo not drawn) [Teneligliptin hydrobromide]", "criterion not met"),
    ("Oc1ccc(C2CNCCc3c2cc(O)c(O)c3Cl)cc1 (stereo not drawn)", "criterion not met"),
    ("CCN(CC)CCOCCOC(=O)C(CC)(CC)c1ccccc1.O=C(O)CC(O)(CC(=O)O)C(=O)O [Oxeladin Citrate]", "criterion not met"),
    ("CC(=O)[C@@]1(O)CC[C@H]2[C@@H]3CCC4=CC(=O)CCC4=C3[C@@H](c3ccc(N(C)C)cc3)C[C@@]21C", "criterion met"),
]

###

- Tested on: WHIM30 (cells of a triple-negative basal-like breast cancer xenograft)
- experimental details: cell viability (% of vehicle); higher = less cytotoxic
- condition label: 10 µM; 72 h
attribute measured: cell viability

# molecule, assayed target, experimental value
measured = [
    ("Cl.NCCS [Cysteamine HCl]", "WHIM30", 102),
    ("CC(C)C(=O)OCC(=O)[C@@]12O[C@H](C3CCCCC3)O[C@@H]1C[C@H]1[C@@H]3CCC4=CC(=O)C=C[C@]4(C)[C@H]3[C@@H](O)C[C@@]12C [Ciclesonide]", "WHIM30", 100),
    ("Cl.NCCCC(N)(C(=O)O)C(F)F.O (racemic) [DL-α-Difluoromethylornithine (hydrochloride hydrate)]", "WHIM30", 97.1),
]

###

- Tested on: HCI09 (cells of a triple-negative luminal androgen receptor type breast cancer xenograft)
- experimental details: cell viability (% of vehicle); higher = less cytotoxic
- condition label: 10 µM; 72 h
attribute measured: cell viability

# compound, experimental value
records = [
    ("CCCCCOc1ccc(-c2ccc(-c3ccc(C(=O)N[C@H]4C[C@@H](O)[C@@H](O)NC(=O)[C@@H]5[C@@H](O)[C@@H](C)CN5C(=O)[C@H]([C@@H](C)O)NC(=O)[C@H]([C@H](O)[C@@H](O)c5ccc(O)cc5)NC(=O)[C@@H]5C[C@@H](O)CN5C(=O)[C@H]([C@@H](C)O)NC4=O)cc3)cc2)cc1", 40.3),
    ("CC#CC1(O)CCC2C3CCC4=CC(=O)CCC4=C3C(c3ccc(N(C)C)cc3)CC21C (stereo not drawn)", 72.6),
    ("O=S(=O)([O-])CCSSCCS(=O)(=O)[O-].[Na+].[Na+]", 97),
    ("CCC(=O)NCCC1CCc2ccc3c(c21)CCO3 (stereo not drawn)", 94),
    ("CC12CCC3c4ccc(O)cc4CCC3C1CCC2=O (stereo not drawn)", 97.3),
    ("CSc1nc2cc(Oc3cccc(Cl)c3Cl)c(Cl)cc2[nH]1", 83),
    ("COc1cc2nc(N3CCN(C(=O)C4COc5ccccc5O4)CC3)nc(N)c2cc1OC.CS(=O)(=O)O (stereo not drawn) [Doxazosin Mesylate]", 73.2),
    ("O=C1CCc2ccc(OCCCCN3CCN(c4cccc(Cl)c4Cl)CC3)cc2N1", 73.6),
    ("COc1ccc(CNc2nc(N3CCCC3CO)ncc2C(=O)NCc2ncccn2)cc1Cl (stereo not drawn)", 102),
    ("CCCC(=O)Nc1ccc(OCC(O)CNC(C)C)c(C(C)=O)c1.Cl (stereo not drawn) [Acebutolol HCl]", 102),
    ("CN(C)CCN(Cc1ccccc1)c1ccccn1.Cl [Tripelennamine HCl]", 94.4),
    ("CCCCCCCN(CC)CCCC(O)c1ccc(NS(C)(=O)=O)cc1.CCCCCCCN(CC)CCCC(O)c1ccc(NS(C)(=O)=O)cc1.O=C(O)C=CC(=O)O (stereo not drawn) [Ibutilide Fumarate]", 105),
    ("COC(=O)C1=C(C)NC(C)=C(C(=O)OCCN(C)Cc2ccccc2)C1c1cccc([N+](=O)[O-])c1.Cl (stereo not drawn) [Nicardipine HCl]", 35.5),
]

###

- Test system: WHIM2 (cells of a triple-negative basal-like breast cancer xenograft)
- experimental details: cell viability (% of vehicle); higher = less cytotoxic
- condition label: 10 µM; 72 h
Threshold 50. cell viability below it: 1 (yes). cell viability at it or above: 0 (no).

# compound, assigned class
rows = [
    ("CC(CCC(=O)O)C1CCC2C3C(O)CC4CC(O)CCC4(C)C3CCC12C (stereo not drawn) [Ursodiol]", "0 (no)"),
    ("CN(C)NN=C1N=CN=C1C(N)=O [Dacarbazine]", "0 (no)"),
    ("CC(C)=CCCC(C)=CCCC(C)=CCSc1ccccc1C(=O)O [Salirasib]", "1 (yes)"),
    ("CCc1ccc(CCOc2ccc(CC3SC(=O)NC3=O)cc2)nc1 (stereo not drawn) [Pioglitazone]", "0 (no)"),
    ("CC(=O)SC1CC2=CC(=O)CCC2(C)C2CCC3(C)C(CCC34CCC(=O)O4)C12 (stereo not drawn) [Spironolactone]", "0 (no)"),
    ("CN(C)CCOc1ccc(C(=C(CCCl)c2ccccc2)c2ccccc2)cc1.O=C(O)CC(O)(CC(=O)O)C(=O)O [Toremifene Citrate]", "1 (yes)"),
    ("CC(=O)O.C[C@H](N)C(=O)O.NCCCC[C@H](N)C(=O)O.N[C@@H](CCC(=O)O)C(=O)O.N[C@@H](Cc1ccc(O)cc1)C(=O)O [glatiramer acetate]", "0 (no)"),
]

###

Overview of recorded cell viability for various compounds
- Test system: UCD52
- experimental details: cell viability (% of vehicle); higher = less cytotoxic
- condition label: 10 µM; 72 h

# compound, cell viability
measured = [
    ("CC(=O)O.NC(N)=NN=Cc1c(Cl)cccc1Cl [Guanabenz Acetate]", 76.9),
    ("CCc1cccc2c3c([nH]c12)C(CC)(CC(=O)O)OCC3 (centres undefined)", 79.2),
    ("CCC1C(O)C2C3CCC(C(C)CCC(=O)O)C3(C)CCC2C2(C)CCC(O)CC12 (centres undefined)", 98.9),
    ("CC(=O)OC12COC1CC(O)C1(C)C(=O)C(O)C3=C(C)C(OC(=O)C(O)C(NC(=O)OC(C)(C)C)c4ccccc4)CC(O)(C(OC(=O)c4ccccc4)C21)C3(C)C.O.O.O (centres undefined) [Docetaxel Trihydrate]", 91),
    ("CCCSc1nc(NC2CC2c2ccc(F)c(F)c2)c2nnn(C3CC(OCCO)C(O)C3O)c2n1 (centres undefined)", 64.9),
    ("CCC(=O)OCC(=O)C1(OC(=O)CC)C(C)CC2C3CCC4=CC(=O)C=CC4(C)C3(F)C(O)CC21C (centres undefined) [Betamethasone Dipropionate]", 147),
    ("CC(=CC(=O)OCCCCCCCCC(=O)O)CC1OCC(CC2OC2C(C)C(C)O)C(O)C1O (centres undefined)", 84.2),
    ("FC(F)(F)c1ccc(CNc2ccc(Cc3c[nH]c4ncc(Cl)cc34)cn2)cn1", 97.4),
    ("CN1C(C(=O)Nc2ccccn2)=C(O)c2sccc2S1(=O)=O", 87.2),
]

###

- System: HCI16 (cells of a triple-negative basal-like breast cancer xenograft)
- experimental details: cell viability (% of vehicle); higher = less cytotoxic
- condition label: 10 µM; 72 h
Threshold 100. cell viability below it: Fulfilled. cell viability at it or above: Not fulfilled.

# molecule, assayed target, assigned class
data = [
    ("COc1ccc(C2Sc3ccccc3N(CCN(C)C)C(=O)C2OC(C)=O)cc1.Cl (centres undefined) [Diltiazem HCl]", "HCI16", "Not fulfilled"),
    ("COc1cc(C(=O)NC2CCCNC2)cc(OC)c1OC (centres undefined) [Troxipide]", "HCI16", "Not fulfilled"),
    ("CC(NC(=O)C(O)C(C)C)C(=O)NC1C(=O)N(C)CCc2ccccc21 (centres undefined)", "HCI16", "Not fulfilled"),
    ("CCN(CCCc1ccccc1)CCCc1ccccc1.O=C(O)CC(O)(CC(=O)O)C(=O)O [Alverine Citrate]", "HCI16", "Not fulfilled"),
    ("CC(=O)O.CC(O)C(CO)NC(=O)C1CSSCC(NC(=O)C(N)Cc2ccccc2)C(=O)NC(Cc2ccccc2)C(=O)NC(Cc2c[nH]c3ccccc23)C(=O)NC(CCCCN)C(=O)NC(C(C)O)C(=O)N1 (centres undefined) [Octreotide acetate]", "HCI16", "Fulfilled"),
    ("O=c1cc(O)c(Cl)c[nH]1 [Gimeracil]", "HCI16", "Fulfilled"),
    ("CN1CC(=O)N2[C@H](c3ccc4c(c3)OCO4)c3[nH]c4ccccc4c3C[C@@H]2C1=O [Tadalafil]", "HCI16", "Fulfilled"),
    ("O=C(NCC1CN(c2ccc(N3CCOCC3=O)cc2)C(=O)O1)c1ccc(Cl)s1 (centres undefined) [Rivaroxaban]", "HCI16", "Fulfilled"),
    ("Cl.c1ccc(CC2=NCCN2)cc1 [Tolazoline HCl]", "HCI16", "Not fulfilled"),
    ("CC12CCC(O)CC1=CCC1C2CCC2(C)C(c3cccnc3)=CCC12 (centres undefined) [Abiraterone]", "HCI16", "Not fulfilled"),
    ("Cc1nnc(SCC2=C(C(=O)[O-])N3C(=O)[C@@H](NC(=O)Cn4cnnn4)[C@H]3SC2)s1.[Na+] [Cefazolin (sodium salt)]", "HCI16", "Not fulfilled"),
    ("COc1cnc(NS(=O)(=O)c2ccc(N)cc2)nc1 [Sulfameter]", "HCI16", "Not fulfilled"),
    ("Cc1ccccc1C(=O)Nc1ccc(C(=O)N2CCCC(O)c3cc(Cl)ccc32)c(C)c1 (centres undefined) [Tolvaptan]", "HCI16", "Not fulfilled"),
    ("CC(NCCc1ccc(O)cc1)C(O)c1ccc(O)cc1.Cl (centres undefined) [Ritodrine HCl]", "HCI16", "Not fulfilled"),
    ("CC1CNCCCN1S(=O)(=O)c1cccc2cncc(F)c12.Cl.O.O (centres undefined)", "HCI16", "Fulfilled"),
    ("Cl.NC1=NCC2c3ccccc3Cc3ccccc3N12 (centres undefined) [Epinastine HCl]", "HCI16", "Not fulfilled"),
    ("COc1ccc(-c2cc(=O)c3c(O)cc(O)cc3o2)cc1O [Diosmetin]", "HCI16", "Not fulfilled"),
    ("CC[C@H](C)[C@@H]1NC(=O)[C@H](Cc2ccc(O)cc2)NC(=O)[C@@H](N)CSSC[C@@H](C(=O)N2CCC[C@H]2C(=O)N[C@@H](CC(C)C)C(=O)NCC(N)=O)NC(=O)[C@H](CC(N)=O)NC(=O)[C@H](CCC(N)=O)NC1=O [Oxytocin]", "HCI16", "Not fulfilled"),
]

Hello, the source for this data is the supplement of paper PMC6992640, in case you need it.
